- Tested on: PBMC (polyclonal gluten-specific T cells) of paediatric and adult CD patients
- Assay Details: IFN-γ ELISpot of PBMC after 3 day oral wheat challenge (SFU, % of maximal peptide response, dominance scores, EC50; Examples 5-6)
- Format: cell-based, human
- Test Parameters: subject seven (3-5yrs/6-10yrs part), following wheat challenge
# note: boundary value 5 SFU maps to not met; Cross-reactive T cell response below it maps to met

The following sequences have reported results that may help.
| Seq String | Assigned Category |
| --- | --- |
| QPFPQPEQPTPIQ | not met |
| NPLQPEQPFPLQPQPP | met |
| QPFPQPEQPIPQQ | not met |
| PEQPFQPEQPFPQQ | not met |
| QPFPQPEQQLPLQ | not met |

Does the reported Cross-reactive T cell response of the following sequence sit strictly below 5 SFU? PFPLQPEQPVPEQPQ
met

Does the reported Cross-reactive T cell response of the following sequence sit strictly below 5 SFU? QLFPLPEQPFPQP
met

Does the reported Cross-reactive T cell response of the following sequence sit strictly below 5 SFU? QPFPQPEQPFPWQP
not met

Does the reported Cross-reactive T cell response of the following sequence sit strictly below 5 SFU? QPFPQPEQPFSWQ
not met

Does the reported Cross-reactive T cell response of the following sequence sit strictly below 5 SFU? QPFPQPEQELPLQ
not met

Does the reported Cross-reactive T cell response of the following sequence sit strictly below 5 SFU? QPFPQPEQPFPLQ
not met

Does the reported Cross-reactive T cell response of the following sequence sit strictly below 5 SFU? QPFPQPEQPFRQQ
not met

Does the reported Cross-reactive T cell response of the following sequence sit strictly below 5 SFU? LPFPQPEQPFVVV
met

Does the reported Cross-reactive T cell response of the following sequence sit strictly below 5 SFU? PEQPQPFPEQPVPQQP
met

Does the reported Cross-reactive T cell response of the following sequence sit strictly below 5 SFU? QPEQPFPLQPEQPVP
not met

Does the reported Cross-reactive T cell response of the following sequence sit strictly below 5 SFU? QEFPQPEQPFPQQ
met

Does the reported Cross-reactive T cell response of the following sequence sit strictly below 5 SFU? QPFPQPEQPIPYQ
not met

Does the reported Cross-reactive T cell response of the following sequence sit strictly below 5 SFU? QPFPQPEQPFPQS
not met

Does the reported Cross-reactive T cell response of the following sequence sit strictly below 5 SFU? PEQPFPEQPQPYPQQP
met

====

- Test system: PBMC (polyclonal gluten-specific T cells) of paediatric and adult CD patients
- Assay Details: IFN-γ ELISpot of PBMC after 3 day oral wheat challenge (SFU, % of maximal peptide response, dominance scores, EC50; Examples 5-6)
- Format: cell-based, human
- Test Parameters: subject two (3-5yrs/6-10yrs part), following wheat challenge
Labels assigned by Cross-reactive T cell response range: lowest: < 6 SFU; middle: ≥ 6 SFU and < 20 SFU; highest: ≥ 20 SFU

The following sequences have reported results that may help.
| Seq String | Target Or System | Assigned Category |
| --- | --- | --- |
| QLFPLPEQPFPQP | PBMC (polyclonal gluten-specific T cells) of paediatric and adult CD patients | lowest |
| QPFPQPEQPFPLQ | PBMC (polyclonal gluten-specific T cells) of paediatric and adult CD patients | highest |
| NPLQPEQPFPLQPQPP | PBMC (polyclonal gluten-specific T cells) of paediatric and adult CD patients | middle |
| QPFPQPEQPFSWQ | PBMC (polyclonal gluten-specific T cells) of paediatric and adult CD patients | highest |
| PEQPQPFPEQPVPQQP | PBMC (polyclonal gluten-specific T cells) of paediatric and adult CD patients | lowest |
| QPFPQPEQPIPQQ | PBMC (polyclonal gluten-specific T cells) of paediatric and adult CD patients | highest |
| QEFPQPEQPFPQQ | PBMC (polyclonal gluten-specific T cells) of paediatric and adult CD patients | highest |
| FPQTEQPEQPFPQP | PBMC (polyclonal gluten-specific T cells) of paediatric and adult CD patients | lowest |

Exercise: read the entry LPFPQPEQPFVVV and state which class it falls under.
middle

Exercise: read the entry QPFPQPEQQLPLQ and state which class it falls under.
lowest

Exercise: read the entry QPFPQPEQPFPQS and state which class it falls under.
highest

Exercise: read the entry PEQPFPEQPQPYPQQP and state which class it falls under.
lowest

Exercise: read the entry QPFPQPEQPFPWQP and state which class it falls under.
highest

Exercise: read the entry QPFPQPEQELPLQ and state which class it falls under.
middle

Exercise: read the entry PFPLQPEQPVPEQPQ and state which class it falls under.
lowest

Exercise: read the entry QPFPQPEQPFRQQ and state which class it falls under.
highest

Exercise: read the entry QPFPQPEQPIPYQ and state which class it falls under.
highest
